Values from ChEMBL document CHEMBL4689842

Tested on: HEK-293T
protocol-text: Multiplex assay against HEK293T
Format: toxicity, cell-based
condition-label: human, 24 h, 10 µM, compound concentration 10 uM, replicate 2
endpoint-label: Population Mitotic Cells (%)
Numbers only, in %.

molecule=CC(C)OC(=O)N1CCC(Oc2ncnc3c2cnn3-c2ccc(S(C)(=O)=O)cc2F)CC1 assay_target=HEK-293T endpoint_label="Population Mitotic Cells (%)" units_text=% measured_result=96

For each listed entry, give its Population Mitotic Cells (%).
1. Cc1ccc2c(c1)c1c(n2CCc2ccc(C)nc2)CCN(C)C1 [LATREPIRDINE]
2. CC(C)CC(=O)Nc1[nH]nc2c1CN(C(=O)C1CCN(C)CC1)C2(C)C
3. CCCSc1nc(N[C@@H]2C[C@H]2c2ccc(F)c(F)c2)c2nnn([C@@H]3C[C@H](OCCO)[C@@H](O)[C@H]3O)c2n1
4. COC(=O)C1=C(C)NC(C)=C(C(=O)OCCCN2CCC(c3ccccc3)(c3ccccc3)CC2)[C@H]1c1cccc([N+](=O)[O-])c1
5. CC(C)c1noc(N2CCC(COc3ccc(-c4ccc(S(C)(=O)=O)cc4)nc3)CC2)n1

Response:
[6, 63, 10, 20, 85]

For each listed entry, give its Population Mitotic Cells (%).
1. C=CC(=O)Nc1cccc(Sc2nc(Nc3ccc(N4CCN(C)CC4)cc3)ncc2Cl)c1
2. CNC(=O)Nc1ccc2c(c1)[C@@]1(CC2)OC(=O)N(CC(=O)N(Cc2ccc(F)cc2)[C@@H](C)C(F)(F)F)C1=O
3. COc1cc(Nc2nccc(-c3cnn4nc(OC)ccc34)n2)cc(C(F)(F)F)c1
4. Cc1ccccc1C(c1ccccc1C)N1C2CCC1CC(O)(c1ccccc1)C2 (configuration not stated)
5. Cc1cccc(CN2CCN(C(c3ccccc3)c3ccc(Cl)cc3)CC2)c1.Cl.Cl (configuration not stated)
6. CC1=C(C(=O)Nc2cc3cn[nH]c3cc2F)C(c2ccc(C(F)(F)F)cc2)CC(=O)N1 (configuration not stated)
7. C[C@]12CC[C@@H]3c4ccc(O)cc4CC[C@H]3[C@@H]1CC[C@@H]2O

Response:
[95, 92, 76, 68, 40, 73, 92]

For each listed entry, give its Population Mitotic Cells (%).
1. CC(C)Oc1ccccc1C(=O)Nc1ccccc1C(=O)Nc1cccc(S(=O)(=O)C(F)(F)F)c1
2. CCc1ccc(OCc2ccccc2C(=O)Nc2ccc3nc(C)cc(N)c3c2)cc1.Cl
3. Cc1c[nH]c2nccc(Oc3c(F)cc(Nc4cc(Cl)nc(N)n4)cc3F)c12
4. COc1cc2ncn(-c3cc(OCc4ccccc4C(F)(F)F)c(C(N)=O)s3)c2cc1OC [GW843682X]

Response:
1. 21
2. 57
3. 68
4. 42

====

Test system: HEK-293T
protocol-text: Multiplex assay against HEK293T;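 as to Population Tubulin-Different-Phenotype (%): share of the cells with healthy nuclei that show this phenotype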
Format: toxicity, cell-based
condition-label: human, 24 h, 1 µM, compound concentration 1 uM, replicate 1
I'd appreciate it if you could supply Population Tubulin-Different-Phenotype (%) values for the items below.
One number for each entry, in %.

compound=C=CC(=O)Nc1cccc(Oc2nc(Nc3ccc(N4CCN(C)CC4)cc3OC)ncc2Cl)c1 measured_result=78
compound="Cc1c[nH]c2nccc(Oc3c(F)cc(Nc4cc(Cl)nc(N)n4)cc3F)c12 [BAY-549]" measured_result=25
compound="CN1CCN(Cc2ccc(Nc3ncc(Cl)c(Nc4ccccc4S(=O)(=O)N(C)C)n3)cc2)CC1 [DUBERMATINIB]" measured_result=31
compound="CC1=C(C(=O)Nc2cc3cn[nH]c3cc2F)C(c2ccc(C(F)(F)F)cc2)CC(=O)N1 (stereo not given)" measured_result=29
compound="C=CC(=O)Nc1ccc2[nH]c(=O)n(C3CCN(Cc4ccc(-c5nc6cc[nH]c(=O)c6cc5-c5ccccc5)cc4)CC3)c2c1 [Borussertib]" measured_result=10

For each listed entry, give its Population Tubulin-Different-Phenotype (%).
1. Cc1ccc2c(c1)c1c(n2CCc2ccc(C)nc2)CCN(C)C1 [LATREPIRDINE]
2. CC(C)NC(=O)N1CC[C@H](NC2=Nc3cc(F)ccc3N(CC(F)F)c3ccc(Cl)cc32)C1

Response:
1. 87
2. 32

====

Test system: U2OS
protocol-text: Multiplex assay against U2OS
Format: toxicity, cell-based
condition-label: human, 48 h, 1 µM, compound concentration 1 uM, replicate 1
endpoint-label: Total Cell Count
Numbers only.

# count of solved cases: 8
compound="Cc1ccccc1C(c1ccccc1C)N1C2CCC1CC(O)(c1ccccc1)C2 (stereo not drawn)" assay_target=U2OS measured_result=157
compound=Cl.O=C(O)c1cc(-c2ccc(C3CCNCC3)cc2)c2ccc(-c3ccc(C(F)(F)F)cc3)cc2c1 assay_target=U2OS measured_result=359
compound=COc1ccc(-c2ccc3ncc4c(c3c2)n(-c2ccc(N3CCNCC3)c(C(F)(F)F)c2)c(=O)n4C)cn1.O=C(O)/C=C\C(=O)O assay_target=U2OS measured_result=185
compound=CC(C)Oc1ccccc1C(=O)Nc1ccccc1C(=O)Nc1cccc(S(=O)(=O)C(F)(F)F)c1 assay_target=U2OS measured_result=109
compound=COC(=O)C1=C(C)NC(C)=C(C(=O)OCCCN2CCC(c3ccccc3)(c3ccccc3)CC2)[C@H]1c1cccc([N+](=O)[O-])c1 assay_target=U2OS measured_result=922
compound=CC(C)c1noc(N2CCC(COc3ccc(-c4ccc(S(C)(=O)=O)cc4)nc3)CC2)n1 assay_target=U2OS measured_result=406
compound=O=c1cc(N2CCOCC2)oc2c(-c3cccc4c3sc3ccccc34)cccc12 assay_target=U2OS measured_result=127
compound=CC(C)NC(=O)N1CC[C@H](NC2=Nc3cc(F)ccc3N(CC(F)F)c3ccc(Cl)cc32)C1 assay_target=U2OS measured_result=499

For each listed entry, give its Total Cell Count.
1. C[C@]12CC[C@@H]3c4ccc(O)cc4CC[C@H]3[C@@H]1CC[C@@H]2O
2. Cc1ccc2c(c1)c1c(n2CCc2ccc(C)nc2)CCN(C)C1 [LATREPIRDINE]

Response:
[138, 150]

====

Tested on: Fibroblast
protocol-text: Multiplex assay against human fibroblast
Assay type: toxicity, cell-based
condition-label: 48 h, 1 µM, compound concentration 1 uM, replicate 1
Rule: measured Population Healthy Nuclei (%) below 50% gets Fulfilled; anything equal to or greater than 50% gets Not fulfilled.

Worked examples, 4 compounds total:
smiles_code=Cc1c[nH]c2nccc(Oc3c(F)cc(Nc4cc(Cl)nc(N)n4)cc3F)c12 assay_target=Fibroblast label_value=Fulfilled
smiles_code=CNC(=O)Nc1ccc(-c2nc(N3CC4CCC(C3)O4)c3cnn(C4CCC5(CC4)OCCO5)c3n2)cc1 assay_target=Fibroblast label_value=Fulfilled
smiles_code=Cc1ccc(C)c(Oc2ccncc2C(=O)N2CCN(C3CC3)c3ccccc32)c1 assay_target=Fibroblast label_value="Not fulfilled"
smiles_code=CCCSc1nc(N[C@@H]2C[C@H]2c2ccc(F)c(F)c2)c2nnn([C@@H]3C[C@H](OCCO)[C@@H](O)[C@H]3O)c2n1 assay_target=Fibroblast label_value="Not fulfilled"

For the next question, use this compound.
Query: Take the compound "CC(C)NC(=O)N1CC[C@H](NC2=Nc3cc(F)ccc3N(CC(F)F)c3ccc(Cl)cc32)C1" and say whether its Population Healthy Nuclei (%) is less than 50%.
Response: Not fulfilled

====

Tested on: Fibroblast
protocol-text: Multiplex assay against human fibroblast
Type: toxicity, cell-based
condition-label: 48 h, 10 µM, compound concentration 10 uM, replicate 1
Rule: measured Population Apoptotic (%) below 70% gets 1; anything equal to or greater than 70% gets -1.

Worked examples, 3 compounds total:
compound=CCOC(=O)Nc1cc(-c2ccc(C)c(NS(C)(=O)=O)c2)nn2c(C)nnc12 label_value=1
compound=COc1ccccc1CN[C@H]1C2CCN(CC2)[C@H]1C(c1ccccc1)c1ccccc1 label_value=-1
compound=CC(C)c1noc(N2CCC(COc3ccc(-c4ccc(S(C)(=O)=O)cc4)nc3)CC2)n1 label_value=1

Query: Take the compound "COC(=O)C1=C(C)NC(C)=C(C(=O)OCCCN2CCC(c3ccccc3)(c3ccccc3)CC2)[C@H]1c1cccc([N+](=O)[O-])c1" and say whether its Population Apoptotic (%) is less than 70%.
Response: -1

Query: Item: Cc1cccc(CN2CCN(C(c3ccccc3)c3ccc(Cl)cc3)CC2)c1.Cl.Cl (stereo not drawn)
Response: 1

====

System: HEK-293T
protocol-text: Multiplex assay against HEK293T
Assay type: toxicity, cell-based
condition-label: human, 48 h, 1 µM, compound concentration 1 uM, replicate 2
Entry flag: y if Population Mitochondria Different-Phenotype (%) reaches 10%; n if it does not.

compound="COC(=O)C1=C(C)NC(C)=C(C(=O)OCCCN2CCC(c3ccccc3)(c3ccccc3)CC2)[C@H]1c1cccc([N+](=O)[O-])c1 [NIGULDIPINE]" label_value=y
compound="CC(C)c1noc(N2CCC(COc3ccc(-c4ccc(S(C)(=O)=O)cc4)nc3)CC2)n1 [GSK-1292263]" label_value=n
compound="COc1ccc(-c2ccc3ncc4c(c3c2)n(-c2ccc(N3CCNCC3)c(C(F)(F)F)c2)c(=O)n4C)cn1.O=C(O)/C=C\\C(=O)O [BGT-226]" label_value=y
compound=CNC(=O)Nc1ccc(-c2nc(N3CC4CCC(C3)O4)c3cnn(C4CCC5(CC4)OCCO5)c3n2)cc1 label_value=y
compound=CC(C)OC(=O)N1CCC(Oc2ncnc3c2cnn3-c2ccc(S(C)(=O)=O)cc2F)CC1 label_value=n
compound="CCCSc1nc(N[C@@H]2C[C@H]2c2ccc(F)c(F)c2)c2nnn([C@@H]3C[C@H](OCCO)[C@@H](O)[C@H]3O)c2n1 [TICAGRELOR]" label_value=y

For the next question, use this compound.
Query: hey, is Population Mitochondria Different-Phenotype (%) for this one >= 10%? "Cl.O=C(O)c1cc(-c2ccc(C3CCNCC3)cc2)c2ccc(-c3ccc(C(F)(F)F)cc3)cc2c1"
Response: n
